All values here come from the RepoRT retention time repository.

- TEST NAME: Waters ACQUITY UPLC BEH C18, 100 × 2.1 mm, 1.7 µm, 40 °C, 0.3 to 0.4 mL/min, estimated dead time 0.63 min; A: water + 0.1% formic acid; B: methanol + 0.1% formic acid; gradient (min/%B) 0/0.5 0.1/0.5 10/80 10.1/99.5 12/99.5
- STUDY CONDITIONS: stereoisomer not certain
TEST READOUT: LC retention time (min)

>>> observed_value("CC1OC(Oc2cc3c(O)cc(O)cc3[o+]c2-c2ccc(O)c(O)c2)C(O)C(O)C1O (centres undefined)")
3.18
>>> observed_value("CC1CCC2(NC1)OC1CC3C4CCC5CC(OC6OC(CO)C(OC7OC(CO)C(O)C(OC8OC(O)C(O)C(O)C8O)C7OCC(O)C(O)C(O)C(O)CO)C(O)C6O)CCC5(C)C4CCC3(C)C1C2C (centres undefined)")
4.32
>>> observed_value("O=c1cc(-c2ccc(O)cc2)oc2c(C3OC(CO)C(O)C(O)C3O)c(O)c(C3OC(CO)C(O)C(O)C3O)c(O)c12 (centres undefined)")
3.3
>>> observed_value("CN(C)CCc1ccc(O)cc1")
2.05
